- test.summary: Locust hemolymph kinetics after injection into the hemolymph (LCMS)
- details: Locusta migratoria, in vivo, 0.2 mg per locust (approximately)
quantity.kind: concentration at 45 min (ng/mL)
Answers are plain numbers, in ng/mL.

Given Cn1c(=O)c2c(ncn2C)n(C)c1=O [caffeine] , respond with its concentration at 45 min. 8780

###

Task for the reader: assign each of the following compounds its reported concentration at 5 min.
- test.summary: Locust hemolymph kinetics after injection into the hemolymph (LCMS)
- details: Locusta migratoria, in vivo, 0.4 mg per locust (approximately)
The reply should read as a number followed by its unit.

{"columns": ["compound", "result"],
 "data": [
  ["Cn1c(=O)c2c(ncn2C)n(C)c1=O [caffeine]", "29000 ng/mL"]
]}

For each of the items listed, what is its concentration at 5 min?
1. O=C1CC2(CCCC2)CC(=O)N1CCCCN1CCN(c2ncccn2)CC1 [buspirone]
2. CN(C)C(=O)C(CCN1CCC(O)(c2ccc(Cl)cc2)CC1)(c1ccccc1)c1ccccc1 [loperamide]

1. 10700 ng/mL
2. 5600 ng/mL

###

- test.summary: Locust hemolymph kinetics after injection into the hemolymph (LCMS)
- details: Locusta migratoria, in vivo, 0.2 mg per locust (approximately)
quantity.kind: concentration at 5 min (ng/mL)
One number for each entry, in ng/mL.

Given Cn1c(=O)c2c(ncn2C)n(C)c1=O [caffeine] , respond with its concentration at 5 min. 9280
